# Measured target: P.1 Spike (SARS-CoV2)
Listing: Response of selected binders
Number only, please.

Ab_21 scFv-Fc (scFv, V domains shown) VH: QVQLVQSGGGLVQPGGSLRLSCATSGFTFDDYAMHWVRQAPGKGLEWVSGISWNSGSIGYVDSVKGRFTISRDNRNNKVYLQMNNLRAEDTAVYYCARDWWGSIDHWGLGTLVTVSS VL: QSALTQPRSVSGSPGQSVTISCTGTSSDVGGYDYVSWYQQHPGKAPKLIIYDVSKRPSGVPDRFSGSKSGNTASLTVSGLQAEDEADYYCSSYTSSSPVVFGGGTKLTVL
0.103

Shifting focus to the binder that follows.
-- ask Note down Response recorded for Ab_20 scFv-Fc (scFv, V domains shown) VH: QVQLVQSGGGSVKPGGSLRLSCAASGYRLSDYYMHWVRQAPGKGLEWVANIKQDGSEKYYVDSVKGRFTISRDNAKNSLYLQMNSLRAEDTAVYYCARVRGWSRGYFDYWGQGTLVTVSS VL: NFMLTQPHSVSESPGKTVTISCTGSSGSIASNYVQWYQQRPGSAPTTVIYEDNQRPSGVPDRFSGSIDSSSNSASLLISGLKTEDEADYYCQSYDSSNHWVFGGGTKLTVL
-- reply 0.17
